B1: SNAP91 (parent)
chain: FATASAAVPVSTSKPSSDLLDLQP

variants of: B1; assay: protein stability index of a GFP-peptide fusion (GPS, HEK-293T) (PSI 1-6); higher = more stable; conditions: c terminus: a fixed tail appended;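 also: lentivirally expressed fusions sorted by FACS into six bins by GFP to DsRed ratio, PSI derived from sequencing read proportions per bin multiplied by bin number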
experimental-readout: protein stability index
Please give the numeric answer without any surrounding text.

Q) Request the reported protein stability index associated with `T3K`
A) 3.22

Q) Request the reported protein stability index associated with `L22F`
A) 3.59

Q) Request the reported protein stability index associated with `A6L`
A) 2.47

Q) Request the reported protein stability index associated with `P24G`
A) 3.63

Q) Request the reported protein stability index associated with `Q23A`
A) 3.5

Q) Request the reported protein stability index associated with `L22I`
A) 3.71

Q) Request the reported protein stability index associated with `P9I`
A) 1.87

Q) Request the reported protein stability index associated with `A4R`
A) 3.16

Q) Request the reported protein stability index associated with `L19C`
A) 4.06
